ASSAY_COMMENT: Oral Single Dose PK Study in Rats
TEST_SETTINGS: male, SD, rat, plasma, po, 15 mg/kg
MEASURED_METRIC: Tmax (min)
Note: unit min is implicit; provide only the numeric part.

Tmax for CN[C@]1(c2ccccc2Cl)CCCCC1=O [Esketamine, S-ketamine, reference compound] is 30

----------
ASSAY_COMMENT: Oral Single Dose PK Study in Rats
TEST_SETTINGS: male, SD, rat, plasma, po, 60 mg/kg, AUC0-t, 24 hr time point excluded, 60 mg/kg p.o., 24 hr time point excluded (7 hr was BLQ)
MEASURED_METRIC: AUC(0-t) (ng·h/mL)
// note: answer is a bare numeric in ng·h/mL

# AUC(0-t) (compound: CN[C@]1(c2ccccc2Cl)CCCCC1=O [Esketamine, S-ketamine, reference compound] ) is 311

----------
ASSAY_COMMENT: Oral Single Dose PK Study in Rats
TEST_SETTINGS: male, SD, rat, plasma, po, 60 mg/kg, AUC0-t of Esketamine, value in brackets (24 hr time point excluded), 60 mg/kg p.o., rats
MEASURED_METRIC: AUC(0-t) (ng·h/mL)
I only need the number, in ng·h/mL, no unit after it.

Consider CN[C@]1(c2ccccc2Cl)CCCCC1=O [Esketamine, S-ketamine, reference compound] . Its measured AUC(0-t) is 311

----------
ASSAY_COMMENT: Oral Single Dose PK Study in Rats
TEST_SETTINGS: male, SD, rat, plasma, po, 15 mg/kg
MEASURED_METRIC: Cmax (ng/mL)
Numbers only here, please. The scale is ng/mL.

The reported Cmax of the molecule [2H]C1([2H])CCC[C@](NC)(c2ccccc2Cl)C1=O was 136

Per the record, CN[C@]1(c2ccccc2Cl)CCCCC1=O [Esketamine, S-ketamine, reference compound] has Cmax of 200

----------
Provide the recorded Cmax for the entries that follow.
ASSAY_COMMENT: Oral Single Dose PK Study in Rats
TEST_SETTINGS: male, SD, rat, plasma, po, 60 mg/kg
Lab book: enter the figure in ng/mL, no units written.

# Cmax of [2H]C1([2H])CCC[C@](NC)(c2ccccc2Cl)C1=O [Example 1] = 163

Form: compound = CN[C@]1(c2ccccc2Cl)CCCCC1=O [Esketamine, S-ketamine, reference compound] ; Cmax = 165

----------
Please respond with reported AUC(0-t) for every item in the list.
ASSAY_COMMENT: Oral Single Dose PK Study in Rats
TEST_SETTINGS: male, SD, rat, plasma, po, 15 mg/kg, AUC0-t, 15 mg/kg p.o., male SD rats
// note: answer is a bare numeric in ng·h/mL

// field: AUC(0-t); key: CN[C@]1(c2ccccc2Cl)CCCCC1=O [Esketamine, S-ketamine, reference compound] ; value = 183

get_value(item= [2H]C1([2H])CCC[C@](NC)(c2ccccc2Cl)C1=O , readout=AUC(0-t)) returns 114
